- Method Notes: Cytotoxicity against human MT4 cells after 4 days by MTT assay
- Type: cell-based
Below is a list of entries, each paired with its recorded CC50 at 96 h value.

| Query Smiles | CC50 at 96 h |
| --- | --- |
| N#Cc1ccc(Nc2nc(N)nc(Oc3ccc4cc(Br)ccc4c3)n2)cc1 | 243 µM |
| CNc1nc(Nc2ccc(C#N)cc2)nc(Oc2ccc3ccccc3c2)n1 | 250 µM |
| CCCNc1nc(Nc2ccc(C#N)cc2)nc(Oc2ccc(Cl)c3ccccc23)n1 | 182 µM |
| Cc1ccnc2c1NC(=O)c1cccnc1N2C1CC1 | > 200 µM |
| CCCNc1nc(Nc2ccc(C#N)cc2)nc(Oc2ccc3cc(Br)ccc3c2Br)n1 | 134 µM |
| CCCNc1nc(Nc2ccc(C#N)cc2)nc(Oc2cccc3ccccc23)n1 | 29.5 µM |
| CCNc1nc(Nc2ccc(C#N)cc2)nc(Oc2ccc(Cl)c3ccccc23)n1 | 208 µM |
| CCNc1nc(Nc2ccc(C#N)cc2)nc(Oc2ccc3cc(Br)ccc3c2Br)n1 | 74.4 µM |
| N#Cc1ccc(Nc2nc(N)nc(Oc3ccc4cc(Br)ccc4c3Br)n2)cc1 | 244 µM |
| CNc1nc(Nc2ccc(C#N)cc2)nc(Oc2ccc3ccccc3c2Cl)n1 | 171 µM |

* * *

- Method Notes: Cytotoxicity against human MT4 cells after 4 days by MTT assay
- Format: cell-based

| Molecule | Output Unit | Comparison Sign | CC50 at 96 h |
| --- | --- | --- | --- |
| O=c1[nH]cnc2c1ncn2[C@H]1CC[C@@H](CO)O1 [DIDANOSINE] | µM | ≥ | 529 |
| CNc1nc(Nc2ccc(C#N)cc2)nc(Oc2ccc3ccccc3c2Br)n1 | µM | = | 143 |
| CCCNc1nc(Nc2ccc(C#N)cc2)nc(Oc2ccc3ccccc3c2Br)n1 | µM | > | 263 |
| CCCNc1nc(Nc2ccc(C#N)cc2)nc(Oc2ccc3ccccc3c2Cl)n1 | µM | > | 290 |
| N#Cc1ccc(Nc2nc(N)nc(Oc3ccc(Cl)c4ccccc34)n2)cc1 | µM | = | 237 |
| N#Cc1ccc(Nc2nc(N)nc(Oc3cccc4ccccc34)n2)cc1 | µM | = | 39.1 |
| CC(C)Nc1nc(Nc2ccc(C#N)cc2)nc(Oc2ccc3cc(Br)ccc3c2Br)n1 | µM | ≥ | 209 |
| N#Cc1ccc(Nc2nc(N=[N+]=[N-])nc(Oc3ccc4ccccc4c3Cl)n2)cc1 | µM | = | 256 |
| CC(C)Nc1nc(Nc2ccc(C#N)cc2)nc(Oc2ccc3ccccc3c2Br)n1 | µM | = | 41.5 |
| CNc1nc(Nc2ccc(C#N)cc2)nc(Oc2cccc3ccccc23)n1 | µM | = | 30.3 |

Hey, just so you know, these numbers are from ChEMBL document CHEMBL1156684.
